Reference for the values: the supplement of paper PMC11061612

tested on: SIMA (Neuroblastoma); experiment: Bliss excess, mean over the matrix (fraction); higher = more synergy
measurement-kind: Bliss excess

molecule | value-observed
COc1cccc(OCCCN)c1-c1cc(Nc2cnc(C#N)cn2)n[nH]1 [Prexasertib] + C=CCn1c(=O)c2cnc(Nc3ccc(N4CCN(C)CC4)cc3)nc2n1-c1cccc(C(C)(C)O)n1 [AZD1775] (first compound max 1 µM, partner max 1 µM) | 0.0181
CCN(CCO)CCCOc1ccc2c(Nc3cc(CC(=O)Nc4cccc(F)c4)[nH]n3)ncnc2c1 [AZD2811] + C=CCn1c(=O)c2cnc(Nc3ccc(N4CCN(C)CC4)cc3)nc2n1-c1cccc(C(C)(C)O)n1 [AZD1775] (first compound max 1 µM, partner max 1 µM) | -0.0113
CN(CCO)CC[C@H](CSc1ccccc1)Nc1ccc(S(=O)(=O)NC(=O)c2ccc(N3CCC([C@@H](O)c4ccccc4-c4ccc(Cl)cc4)CC3)cc2)cc1S(=O)(=O)C(F)(F)F [AZD4320] + CCN(CCO)CCCOc1ccc2c(Nc3cc(CC(=O)Nc4cccc(F)c4)[nH]n3)ncnc2c1 [AZD2811] (first compound max 1 µM, 7x7, partner max 1 µM) | 0.0814

###

test system: LU-139 (Small Cell Lung Carcinoma); test: combination Emax (second highest fraction inhibited in the dose matrix, 72 h); higher = more inhibition; extreme values may be limits of the assay
measurement-kind: combination Emax

compound | measurement-kind | value-observed
Cc1cc2ncnn2cc1Nc1ncc2c(n1)n(C1CCOCC1)c(=O)n2C [AZD7648] + COc1cc([C@@H]2c3cc4c(cc3[C@@H](O[C@@H]3O[C@@H]5CO[C@@H](C)O[C@H]5[C@H](O)[C@H]3O)[C@H]3COC(=O)[C@H]23)OCO4)cc(OC)c1O [Etoposide] (first compound max 10 µM, 7x7, partner max 10 µM) | combination Emax | 0.875
CN(CCO)CC[C@H](CSc1ccccc1)Nc1ccc(S(=O)(=O)NC(=O)c2ccc(N3CCC([C@@H](O)c4ccccc4-c4ccc(Cl)cc4)CC3)cc2)cc1S(=O)(=O)C(F)(F)F [AZD4320] + C=CCn1c(=O)c2cnc(Nc3ccc(N4CCN(C)CC4)cc3)nc2n1-c1cccc(C(C)(C)O)n1 [AZD1775] (first compound max 1 µM, partner max 1 µM) | combination Emax | 0.927
NC1(C(=O)N[C@@H](CCO)c2ccc(Cl)cc2)CCN(c2ncnc3[nH]ccc23)CC1 [Capivasertib] + Cn1cnc2c(F)c(Nc3ccc(Br)cc3Cl)c(C(=O)NOCCO)cc21 [Selumetinib] (first compound max 10 µM, 7x7, partner max 10 µM) | combination Emax | 0.0716
COc1cccc(OCCCN)c1-c1cc(Nc2cnc(C#N)cn2)n[nH]1 [Prexasertib] + Cc1cc2ncnn2cc1Nc1ncc2c(n1)n(C1CCOCC1)c(=O)n2C [AZD7648] (first compound max 1 µM, 7x7, partner max 10 µM) | combination Emax | 0.504

###

test system: HMV-II (Melanoma); experiment: Bliss excess, mean over the matrix (fraction); higher = more synergy
Collected Bliss excess values appear next to each entry.

molecule | Bliss excess
NC1(C(=O)N[C@@H](CCO)c2ccc(Cl)cc2)CCN(c2ncnc3[nH]ccc23)CC1 [Capivasertib] + C[C@@H]1COCCN1C2=NC(=NC(=C2)C3(CC3)[S@](=N)(=O)C)C4=C5C=CNC5=NC=C4 [AZD6738] (first compound max 10 µM, 7x7, partner max 10 µM) | -0.0717
COc1nnc2ccc(N3CCC(c4ccc(OCCN5CCN(C)C(=O)[C@H]5C)cc4)CC3)nn12 [AZD5153] + CC1(C)CCC(CN2CCN(c3ccc(C(=O)NS(=O)(=O)c4ccc(NCC5CCOCC5)c([N+](=O)[O-])c4)c(Oc4cnc5[nH]ccc5c4)c3)CC2)=C(c2ccc(Cl)cc2)C1 [Venetoclax] (first compound max 1 µM, 7x7, partner max 1 µM) | -0.0695
COc1nnc2ccc(N3CCC(c4ccc(OCCN5CCN(C)C(=O)[C@H]5C)cc4)CC3)nn12 [AZD5153] + Cc1c2c(nn1C)CSCc1cc(n(C)n1)CSc1cc(c3ccccc3c1)OCCCc1c(C(=O)O)n(C)c3c-2c(Cl)ccc13 [AZD5991] (first compound max 1 µM, 7x7, partner max 1 µM) | -0.0092
N#Cc1cnc(Nc2cc(NC[C@H]3CNCCO3)c(C(F)(F)F)cn2)cn1 [SRA737] + Nc1ccn([C@@H]2O[C@H](CO)[C@@H](O)C2(F)F)c(=O)n1 [Gemcitabine] (first compound max 10 µM, 7x7, partner max 0.3 µM) | -0.0122
CCc1c2c(nc3ccc(O)cc13)-c1cc3c(c(=O)n1C2)COC(=O)[C@]3(O)CC [SN-38] + O=C(c1cc(Cc2n[nH]c(=O)c3ccccc23)ccc1F)N1CCN(C(=O)C2CC2)CC1 [Olaparib] (first compound max 0.3 µM, 7x7, partner max 10 µM) | 0.0175
O=C(c1cc(Cc2n[nH]c(=O)c3ccccc23)ccc1F)N1CCN(C(=O)C2CC2)CC1 [Olaparib] + Cc1c2c(nn1C)CSCc1cc(n(C)n1)CSc1cc(c3ccccc3c1)OCCCc1c(C(=O)O)n(C)c3c-2c(Cl)ccc13 [AZD5991] (first compound max 10 µM, 7x7, partner max 1 µM) | -0.0561
O=C(c1cc(Cc2n[nH]c(=O)c3ccccc23)ccc1F)N1CCN(C(=O)C2CC2)CC1 [Olaparib] + COc1nnc2ccc(N3CCC(c4ccc(OCCN5CCN(C)C(=O)[C@H]5C)cc4)CC3)nn12 [AZD5153] (first compound max 10 µM, 7x7, partner max 1 µM) | -0.046
Cn1cnc2c(F)c(Nc3ccc(Br)cc3Cl)c(C(=O)NOCCO)cc21 [Selumetinib] + CC(C)n1c(=O)n(C)c2cnc3cc(F)c(-c4ccc(OCCCN5CCCCC5)nc4)cc3c21 [AZD1390] (first compound max 10 µM, 7x7, partner max 0.3 µM) | -0.0262
CC(=O)c1c(C)c2cnc(Nc3ccc(N4CCNCC4)cn3)nc2n(C2CCCC2)c1=O [Palbociclib] + CC1(C)CCC(CN2CCN(c3ccc(C(=O)NS(=O)(=O)c4ccc(NCC5CCOCC5)c([N+](=O)[O-])c4)c(Oc4cnc5[nH]ccc5c4)c3)CC2)=C(c2ccc(Cl)cc2)C1 [Venetoclax] (first compound max 10 µM, 7x7, partner max 1 µM) | -0.0895
CC1(C)CCC(CN2CCN(c3ccc(C(=O)NS(=O)(=O)c4ccc(NCC5CCOCC5)c([N+](=O)[O-])c4)c(Oc4cnc5[nH]ccc5c4)c3)CC2)=C(c2ccc(Cl)cc2)C1 [Venetoclax] + Cn1cnc2c(F)c(Nc3ccc(Br)cc3Cl)c(C(=O)NOCCO)cc21 [Selumetinib] (first compound max 1 µM, 7x7, partner max 3 µM) | -0.0317
Cc1c2c(nn1C)CSCc1cc(n(C)n1)CSc1cc(c3ccccc3c1)OCCCc1c(C(=O)O)n(C)c3c-2c(Cl)ccc13 [AZD5991] + Cc1cc2ncnn2cc1Nc1ncc2c(n1)n(C1CCOCC1)c(=O)n2C [AZD7648] (first compound max 1 µM, 7x7, partner max 10 µM) | -0.067
CC1(C)CCC(CN2CCN(c3ccc(C(=O)NS(=O)(=O)c4ccc(NCC5CCOCC5)c([N+](=O)[O-])c4)c(Oc4cnc5[nH]ccc5c4)c3)CC2)=C(c2ccc(Cl)cc2)C1 [Venetoclax] + Cc1cc2ncnn2cc1Nc1ncc2c(n1)n(C1CCOCC1)c(=O)n2C [AZD7648] (first compound max 1 µM, 7x7, partner max 10 µM) | -0.0407
CC1(C)CCC(CN2CCN(c3ccc(C(=O)NS(=O)(=O)c4ccc(NCC5CCOCC5)c([N+](=O)[O-])c4)c(Oc4cnc5[nH]ccc5c4)c3)CC2)=C(c2ccc(Cl)cc2)C1 [Venetoclax] + C[C@@H](Nc1cc(F)cc(F)c1)c1cc(C(=O)N(C)C)cc2c(=O)cc(N3CCOCC3)oc12 [AZD8186] (first compound max 1 µM, 7x7, partner max 3 µM) | 0.0093
